- measurement-target: Nrg2 (UniProt P38082)
- Sequence: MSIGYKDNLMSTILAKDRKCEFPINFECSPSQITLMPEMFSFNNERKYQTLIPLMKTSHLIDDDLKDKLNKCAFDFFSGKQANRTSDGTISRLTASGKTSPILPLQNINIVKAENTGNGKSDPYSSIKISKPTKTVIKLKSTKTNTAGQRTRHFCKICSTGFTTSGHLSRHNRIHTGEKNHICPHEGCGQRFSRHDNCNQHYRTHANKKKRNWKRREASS
- assay-notes: PBM E-score (8-mer binding enrichment) (E-score (-0.5 to 0.5)); higher = stronger / more preferred TF binding
- condition-notes: protein concentration: 100 nM; construct: GST-full length
Over roughly 33,000 sequences, “E-score (-0.5 to 0.5)” has its median near -8e-05; the highest 2% begin near 0.23. This is one part of a sample in which the highest values are shown more often than they occur.
measured-quantity: PBM E-score

>  <polymer-sequence>
CTGCGCGC

>  <measured-quantity>
PBM E-score

>  <obs-value>
0.306

$$$$
>  <polymer-sequence>
CAGGGCGG

>  <measured-quantity>
PBM E-score

>  <obs-value>
-0.0602

$$$$
>  <polymer-sequence>
CTTCAGCC

>  <measured-quantity>
PBM E-score

>  <obs-value>
-0.229

$$$$
>  <polymer-sequence>
CATACTAG

>  <measured-quantity>
PBM E-score

>  <obs-value>
0.248

$$$$
>  <polymer-sequence>
ATGCGCAC

>  <measured-quantity>
PBM E-score

>  <obs-value>
0.142

$$$$
>  <polymer-sequence>
GCCGGACA

>  <measured-quantity>
PBM E-score

>  <obs-value>
0.0968

$$$$
>  <polymer-sequence>
CTTCGCGC

>  <measured-quantity>
PBM E-score

>  <obs-value>
0.232

$$$$
>  <polymer-sequence>
AAAGTTCG

>  <measured-quantity>
PBM E-score

>  <obs-value>
0.127

$$$$
>  <polymer-sequence>
CGGCCATA

>  <measured-quantity>
PBM E-score

>  <obs-value>
-0.123

$$$$
>  <polymer-sequence>
ATGCGCGA

>  <measured-quantity>
PBM E-score

>  <obs-value>
0.00379

$$$$
>  <polymer-sequence>
CATACTAC

>  <measured-quantity>
PBM E-score

>  <obs-value>
0.151

$$$$
>  <polymer-sequence>
ATGCAAGC

>  <measured-quantity>
PBM E-score

>  <obs-value>
0.0922

$$$$
>  <polymer-sequence>
ATTCGCGC

>  <measured-quantity>
PBM E-score

>  <obs-value>
0.159

$$$$
>  <polymer-sequence>
ATGCGCAA

>  <measured-quantity>
PBM E-score

>  <obs-value>
0.182

$$$$
>  <polymer-sequence>
CCTTCGCC

>  <measured-quantity>
PBM E-score

>  <obs-value>
-0.31

$$$$
>  <polymer-sequence>
GAGCTCGA

>  <measured-quantity>
PBM E-score

>  <obs-value>
0.183

$$$$
>  <polymer-sequence>
ATGCGCAT

>  <measured-quantity>
PBM E-score

>  <obs-value>
0.368

$$$$
>  <polymer-sequence>
CTGCGCTC

>  <measured-quantity>
PBM E-score

>  <obs-value>
-0.146

$$$$
>  <polymer-sequence>
AATCTAAC

>  <measured-quantity>
PBM E-score

>  <obs-value>
0.0101

$$$$
>  <polymer-sequence>
CTTCGCGA

>  <measured-quantity>
PBM E-score

>  <obs-value>
0.0778

$$$$
>  <polymer-sequence>
ATGCGCGG

>  <measured-quantity>
PBM E-score

>  <obs-value>
0.121

$$$$
>  <polymer-sequence>
AATACTAC

>  <measured-quantity>
PBM E-score

>  <obs-value>
0.0385

$$$$

The origin of these recorded values is the supplement of paper PMC3334620.
